Just for reference, paper PMC10459710 is where these values come from.

# Test system: Vero cells
# assay.overview: CellTiter-Glo cell viability assay in Vero cells
# Format: cell-based, African green monkey
# run.parameters: 72 h exposure

{"molecule": "CN(C)C/C=C/C(=O)Nc1cccc(C(=O)Nc2cccc(Nc3ncc(Cl)c(-c4c[nH]c5ccccc45)n3)c2)c1 [THZ2]", "tested.system": "Vero cells", "u": "µM", "CC50": 0.42}
{"molecule": "COc1ccccc1-c1cc(Nc2cccc(CS(N)(=O)=O)c2)ncn1 [LDC000067]", "tested.system": "Vero cells", "u": "µM", "CC50": 14.4}
{"molecule": "O=C1NC(=NCc2cccs2)S/C1=C\\c1ccc2ncccc2c1 [Ro-3306]", "tested.system": "Vero cells", "u": "µM", "CC50": 14.1}
{"molecule": "Nc1cc(Nc2ccc(S(N)(=O)=O)cc2)ncn1 [PNU112455A]", "tested.system": "Vero cells", "u": "µM", "CC50": 156}
{"molecule": "COc1ccc(CNc2nc(N(CCO)CCO)nc3c2ncn3C(C)C)cc1 [CVT-313]", "tested.system": "Vero cells", "u": "µM", "CC50": 6.38}
{"molecule": "CC(=O)Nc1cc(Oc2ccc3c(C(=O)Nc4ccc(CN5CCN(C)CC5)c(C(F)(F)F)c4)cccc3c2)ncn1 [BGG463]", "tested.system": "Vero cells", "u": "µM", "CC50": 18.5}
{"molecule": "C=CS(=O)(=O)c1ccc(Nc2nc(OCC3CCCCC3)c3[nH]cnc3n2)cc1 [NU6300]", "tested.system": "Vero cells", "u": "µM", "CC50": 13.8}
